Values were extracted from patent US20050203007A1.

Field: pKi. Provide a value for each of the binders that follow.
- target_or_test_system: T1, secreted, soluble Kex2 (Saccharomyces cerevisiae, UniProt P13134 114-613, limits assumed)
- T1 construct: Secreted, soluble construct; also called kexin
- T1 sequence (looked up): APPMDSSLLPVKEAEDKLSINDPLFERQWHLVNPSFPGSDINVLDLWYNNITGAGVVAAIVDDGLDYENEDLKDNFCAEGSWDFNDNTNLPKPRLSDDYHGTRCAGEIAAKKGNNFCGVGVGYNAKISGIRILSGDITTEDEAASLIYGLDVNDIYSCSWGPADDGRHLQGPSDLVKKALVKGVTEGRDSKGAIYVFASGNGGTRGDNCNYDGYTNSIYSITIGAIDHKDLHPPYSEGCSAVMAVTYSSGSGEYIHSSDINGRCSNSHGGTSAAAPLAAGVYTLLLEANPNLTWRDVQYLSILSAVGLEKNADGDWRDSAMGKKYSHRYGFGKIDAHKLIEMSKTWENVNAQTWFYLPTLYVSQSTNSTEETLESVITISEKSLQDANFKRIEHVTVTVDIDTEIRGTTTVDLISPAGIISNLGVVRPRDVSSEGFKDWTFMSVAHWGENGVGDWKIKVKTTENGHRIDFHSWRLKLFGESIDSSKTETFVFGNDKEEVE
- assay_details: equilibrium enzyme inhibition, fluorogenic substrate
Give bare numbers, as −log10 of the molar value.

Field: example entries. Status: answers known.
# lookup: pKi of R4R1-eglin (designed binder, N-terminal Met removed; also called Tyr49-R4R1-; D33Y49) SMGSELKSFPEVVGKTVDQAREYFTLHYPQYDVYFLPEGSRVTRDLRYNRVRVFYNPGTNVVNHVPHVG
9.04

Same thing, different binder: R4-eglin (designed binder, N-terminal Met removed; also called R4L1-eglin) SMGSELKSFPEVVGKTVDQAREYFTLHYPQYDVYFLPEGSRVTLDLRYNRVRVFYNPGTNVVNHVPHVG
4.00

Same thing, different binder: M4R1-eglin (designed binder, N-terminal Met removed) SMGSELKSFPEVVGKTVDQAREYFTLHYPQYDVYFLPEGSMVTRDLRYNRVRVFYNPGTNVVNHVPHVG
9.47

Same thing, different binder: R6R4R1-eglin (designed binder, N-terminal Met removed; also called Gly40 Arg on R4R1-template) SMGSELKSFPEVVGKTVDQAREYFTLHYPQYDVYFLPERSRVTRDLRYNRVRVFYNPGTNVVNHVPHVG
9.54

---
# lookup: pKi of R1-eglin (designed binder, also called Arg45-eglin c) SMGSELKSFPEVVGKTVDQAREYFTLHYPQYDVYFLPEGSPVTRDLRYNRVRVFYNPGTNVVNHVPHVG
7.52
